Each entry below lists one item and its recorded melting point value.

Examples from the recorded data:
mol: C[N+]([O-])=CCn1cc(-c2ccc(F)cc2F)nn1
result: 122 to 123 °C
--
mol: CC(C)(C)[N+]([O-])=CCn1cc(-c2ccc(F)cc2F)nn1
result: 122 to 123 °C
--
mol: CC(C)(C)[N+]([O-])=CCn1cc(-c2cccc(F)c2)nn1
result: 94 to 95 °C

In plain terms, Cc1cc(-c2cn(CC=[N+](C)[O-])nn2)ccc1F has a documented melting point of 171 to 173 °C

In plain terms, C[N+]([O-])=CCn1cc(-c2ccccc2)nn1 has a documented melting point of 97 to 98 °C

In plain terms, CC(C)(C)[N+]([O-])=CCn1cc(-c2ccccc2)nn1 has a documented melting point of 91 to 93 °C

---

Each entry below lists one item and its recorded melting point value.

mol: CC(C)(C)[N+]([O-])=CCn1cc(-c2ccc(F)cc2)nn1
result: 128 to 131 °C

mol: C[N+]([O-])=CCn1cc(-c2cccc(F)c2)nn1
result: 158 to 160 °C

mol: C[N+]([O-])=CCn1cc(-c2ccccc2F)nn1
result: 125 to 126 °C

mol: CC(C)(C)[N+]([O-])=CCn1cc(-c2ccccc2F)nn1
result: 72 to 73 °C

mol: Cc1cc(-c2cn(CC=[N+]([O-])C(C)(C)C)nn2)ccc1F
result: 104 to 107 °C

Proceeding to the next compound to report its melting point.
In plain terms, C[N+]([O-])=CCn1cc(-c2ccc(F)cc2)nn1 has a documented melting point of 165 to 167 °C
